The measured values listed here are drawn from patent US6528516B1.

System Under Test: human A3 receptor (Homo sapiens, UniProt P0DMS8)
Sequence (P0DMS8 whole entry): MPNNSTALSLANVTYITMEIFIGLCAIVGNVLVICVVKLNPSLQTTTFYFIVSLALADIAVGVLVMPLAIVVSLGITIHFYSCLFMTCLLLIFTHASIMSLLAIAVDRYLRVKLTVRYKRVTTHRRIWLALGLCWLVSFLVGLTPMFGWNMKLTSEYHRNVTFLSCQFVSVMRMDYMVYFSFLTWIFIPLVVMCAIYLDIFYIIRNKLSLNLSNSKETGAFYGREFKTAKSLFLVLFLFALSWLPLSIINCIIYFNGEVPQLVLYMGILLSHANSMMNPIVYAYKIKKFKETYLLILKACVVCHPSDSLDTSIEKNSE
Assay: Radioligand binding, [125I]AB-MECA, HEK-293 cell membranes
Design: host or cells: HEK-293
Run Parameters: read-out: Ki(hA3)
Protocol: Natl. Acad. Sci. […] Natl. Acad. Sci. U.S.A. 89:7432-7436, 1992) was performed as described at 4° C. (Olah et al., Mol. Pharmacol. 45:978-982, 1994). […] IC50 values, calculated with the nonlinear regression method implemented in the InPlot program (Graph-PAD, San Diego, Calif.), were converted to apparent Ki values using the Cheng-Prusoff equation (Cheng et al., Biochem.
Entries annotated with measured pKi
Quick note: pKi values are minus log10 of concentrations in mol/L.

Smiles Entry | Quantitative Result
CCOC(=O)c1c(CCN2C(=O)c3ccccc3C2=O)c(C(=O)SCC)c(CC)[n+](C)c1-c1ccccc1 | 5.90
CCOC(=O)c1c(CC)c(C(=O)SCC)c(CC)[n+](C)c1C1CCCC1 | 6.16

IN: Returns the measured pKi for the input compound. Input: CCCCc1c(C(=O)SCC)c(CC)c(C(=O)OCC)c(-c2ccccc2)[n+]1C
OUT: 6.36

IN: Returns the measured pKi for the input compound. Input: CCCOC(=O)c1c(CCC)c(C(=O)SCC)c(CC)[n+](C)c1-c1ccccc1
OUT: 5.69

IN: Returns the measured pKi for the input compound. Input: CCOC(=O)c1c(CC)c(C(=O)SCC)c(C2CCC2)[n+](C)c1-c1ccccc1
OUT: 5.85

IN: Returns the measured pKi for the input compound. Input: CCCOC(=O)c1c(CCSC(C)=O)c(C(=O)SCC)c(CC)[n+](C)c1-c1ccccc1
OUT: 6.27

IN: Returns the measured pKi for the input compound. Input: CCSC(=O)c1c(CC)c(C(=O)OCCF)c(-c2ccccc2)[n+](C)c1CC
OUT: 6.44

IN: Returns the measured pKi for the input compound. Input: CCOC(=O)c1c(CC)c(C(=O)SCC)c(CC)[n+](CC)c1-c1ccccc1
OUT: 6.24

====

Assay: Oxidation of 1-methyl-1,4-dihydropyridine in rat brain homogenate
Format: in vitro ADME
Run Parameters: rat brain homogenate supernatant, pH 7.4, 37 C, read-out: t½ of oxidation to pyridinium salt 11
Assay Endpoint: half-life at 1.27 mM

IN: Returns the measured half-life at 1.27 mM for the input compound. Input: CCOC(=O)C1=C(c2ccccc2)N(C)C(CC)=C(C(=O)SCC)C1CC (stereo not shown) [Compound 24]
OUT: ~47 min

====

Tested on: bovine pigmented ciliary epithelial (PE) cells
Assay: Cell volume (shrinkage) of PE cells in isoosmotic suspension, Coulter Counter
Format: cell-based
Run Parameters: in the presence of tamoxifen; read-out: ATP concentration eliciting approximately half-maximal response
Assay Endpoint: EC50

IN: Returns the measured EC50 for the input compound. Input: Nc1ncnc2c1ncn2[C@@H]1O[C@H](COP(=O)(O)OP(=O)(O)OP(=O)(O)O)[C@@H](O)[C@H]1O
OUT: ~3 µM

====

System Under Test: A1 receptors (Rattus norvegicus)
Sequence (P25099 1-326): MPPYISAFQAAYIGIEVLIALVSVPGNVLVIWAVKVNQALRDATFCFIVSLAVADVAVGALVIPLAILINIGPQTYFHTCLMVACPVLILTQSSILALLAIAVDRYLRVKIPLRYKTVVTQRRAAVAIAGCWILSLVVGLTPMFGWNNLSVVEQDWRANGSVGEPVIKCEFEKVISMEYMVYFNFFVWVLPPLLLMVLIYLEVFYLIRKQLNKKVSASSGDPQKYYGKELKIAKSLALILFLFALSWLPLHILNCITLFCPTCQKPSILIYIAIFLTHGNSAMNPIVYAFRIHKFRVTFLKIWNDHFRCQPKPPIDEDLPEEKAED
Assay Endpoint: pKi
Quick note: pKi values are minus log10 of concentrations in mol/L.

Compound | Quantitative Result
CCOC(=O)c1c(CC)c(C(=O)SCC)c(CC)[n+](C)c1C1CCCC1 | 4.94

Now look at this one.
IN: Returns the measured pKi for the input compound. Input: CCOC(=O)C1=C(c2ccccc2)N(C)C(CC)=C(C(=O)SCC)C1CC (centres unmarked)
OUT: 4.55

====

Assay: Water solubility
Assay type: physicochemical
Run Parameters: de-ionized water, water, thermodynamic from solid, room temperature
Assay Endpoint: solubility (mM)
Use mM as the unit, but write only the number.

IN: Returns the measured solubility for the input compound. Input: CCOC(=O)c1c(CC)c(C(=O)SCC)c(CC)[n+](C)c1-c1ccccc1.[I-]
OUT: 42.8

====

Entries annotated with measured log10 Ki
System Under Test: human A3 receptor (Homo sapiens)
Assay: Radioligand binding, [125I]AB-MECA, HEK-293 cell membranes
Parameters: host or cells: HEK-293
Run Parameters: read-out: Ki(hA3)
For clarity, the numbers are log10 values of Ki expressed in µM.

Below are worked cases with known answers.
Molecule | log10 Ki
CCC[n+]1c(CC)c(C(=O)SCC)c(CC)c(C(=O)OCC)c1-c1ccccc1 [Compound 13] | 0.13
CCOC(=O)c1c(CC)c(C(=O)SCC)c(CC)[n+](C)c1-c1ccccc1.[I-] [Compound 11] | -0.66
CCCOC(=O)c1c(CCC)c(C(=O)SCCCF)c(CC)[n+](C)c1-c1ccccc1 [Compound 17] | -0.33
CCCOC(=O)c1c(CC)c(C(=O)SCC)c(CC)[n+](C)c1-c1ccccc1 [Compound 15] | -0.32
CCCOC(=O)c1c(CCC)c(C(=O)SCC)c(CCOCc2ccccc2)[n+](C)c1-c1ccccc1 [Compound 22] | -0.46
CCOC(=O)C1=C(C2CCCC2)N(C)C(CC)=C(C(=O)SCC)C1CC (centres unmarked) [Compound 25] | 0.81
CCOC(=O)c1c(CC)c(C(=O)SCC)c(C)[n+](C)c1-c1ccccc1 [Compound 10] | -0.42

Now look at this one.
IN: Returns the measured log10 Ki for the input molecule. Input: CCOC(=O)C1=C(c2ccccc2)N(C)C(CC)=C(C(=O)SCC)C1CC (centres unmarked) [Compound 24]
OUT: -0.42
